target: MurNAc(b1-4)GlcNAc; experiment: glycan array binding signal (z-score within array); higher = stronger binding; conditions: glycan notation: IUPAC condensed, linker removed
Many of the other results were omitted from the sample, so the strongest signals are more common in it than they were.
readout.label: glycan array binding signal (z-score)
Give your answer as a number; write no unit.

Q: glycan array binding signal (z-score) for Vd2LysM (Verticillium dahliae) (protein) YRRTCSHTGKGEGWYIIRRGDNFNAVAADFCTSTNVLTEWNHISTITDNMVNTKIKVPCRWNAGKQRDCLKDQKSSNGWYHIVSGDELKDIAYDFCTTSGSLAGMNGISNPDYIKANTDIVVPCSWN ?
Result: -0.26

Q: // query glycan array binding signal (z-score) value for entry F17-L (Escherichia coli) (protein) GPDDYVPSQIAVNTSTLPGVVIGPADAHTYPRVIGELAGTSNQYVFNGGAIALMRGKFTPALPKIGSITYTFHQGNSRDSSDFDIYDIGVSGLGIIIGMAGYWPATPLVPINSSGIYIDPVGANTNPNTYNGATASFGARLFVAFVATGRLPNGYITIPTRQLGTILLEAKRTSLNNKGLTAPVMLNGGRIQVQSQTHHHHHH
Result: 4.16

Q: What glycan array binding signal (z-score) value was documented for this binder, GST Gap3 (Streptococcus parasanguinis) (protein) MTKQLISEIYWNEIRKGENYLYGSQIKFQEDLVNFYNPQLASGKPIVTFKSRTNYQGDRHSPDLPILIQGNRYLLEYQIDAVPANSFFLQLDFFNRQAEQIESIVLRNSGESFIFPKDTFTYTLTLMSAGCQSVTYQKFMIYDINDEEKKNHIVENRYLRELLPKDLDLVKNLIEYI ?
Result: -0.582

Q: Give the measured glycan array binding signal (z-score) of Apa (Mycobacterium tuberculosis), Rv1860 (protein) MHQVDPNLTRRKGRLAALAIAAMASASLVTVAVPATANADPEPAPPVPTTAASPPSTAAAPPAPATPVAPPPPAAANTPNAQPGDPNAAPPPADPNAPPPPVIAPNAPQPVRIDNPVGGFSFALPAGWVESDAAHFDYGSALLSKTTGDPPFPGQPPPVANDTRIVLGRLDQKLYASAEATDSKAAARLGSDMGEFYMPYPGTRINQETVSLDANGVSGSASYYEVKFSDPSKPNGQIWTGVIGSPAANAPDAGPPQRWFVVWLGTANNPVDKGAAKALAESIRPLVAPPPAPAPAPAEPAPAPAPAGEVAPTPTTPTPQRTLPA .
Result: -0.3
